tested on: MDA MB-231 human breast cancer cells; test: Antiproliferative assay; type: cell-based; details: Homo sapiens, MDA-MB-231, 96 h, read-out: GI50 MDA MB-231
Below: a set of entries, each annotated with reported GI50.

Worked cases, answers included:
{"Compound": "CCOc1cc(CN2CCc3cc(O)ccc3C2)cc(OCC)c1OCC [Compound 20h]", "Result": "> 100 µM"}
{"Compound": "COc1cc(CN2CCc3cc(O)ccc3C2)cc(OC)c1OC [Compound 20b]", "Result": "0.227 µM"}
{"Compound": "COc1cc(CN2CCc3cc(OCc4ccccc4)ccc3C2)cc(OC)c1OC [Compound 20a]", "Result": "> 100 µM"}
{"Compound": "CCc1cc2c(cc1OS(N)(=O)=O)CCN(Cc1cc(Br)c(OC)c(OC)c1)C2 [Compound 15]", "Result": "0.03 µM"}

The record that follows has no GI50 shown yet.
Dear colleague, I am looking for the recorded GI50 of the following compound: COc1cc2c(cc1OC(C)=O)CCN(Cc1cc(OC)c(OC)c(OC)c1)C2 [Compound 17b]
0.34 µM
